Where do these numbers come from? They come from patent US20220033501A1.

Measured OD450 values are reported for all entries that follow.
# Assay System: T1, human TIM-3 extracellular domain protein with hFc tag (hTIM-3-hFc) (human, UniProt Q8TDQ0 22-200)
# T1 construct: not shown: human IgG Fc fragment (hFc) of the pCpC vector
# T1 sequence: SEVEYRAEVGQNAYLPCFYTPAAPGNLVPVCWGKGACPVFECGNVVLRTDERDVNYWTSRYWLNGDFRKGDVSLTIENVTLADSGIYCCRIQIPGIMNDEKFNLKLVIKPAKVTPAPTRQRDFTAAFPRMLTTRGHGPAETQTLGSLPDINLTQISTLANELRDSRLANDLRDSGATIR
# Protocol Notes: ELISA, coated human TIM-3 ECD protein, 0.6667 nM antibody
Please state the value as a number alone, without comment.

Observe how each entry below is paired with its result.
Need OD450, item 7A4F10 fully human TIM-3 antibody (human IgG4, kappa) (antibody, V domains shown) VH: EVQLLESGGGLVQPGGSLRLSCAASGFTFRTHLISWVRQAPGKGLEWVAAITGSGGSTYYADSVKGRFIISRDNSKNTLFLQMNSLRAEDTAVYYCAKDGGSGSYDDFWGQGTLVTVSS VL: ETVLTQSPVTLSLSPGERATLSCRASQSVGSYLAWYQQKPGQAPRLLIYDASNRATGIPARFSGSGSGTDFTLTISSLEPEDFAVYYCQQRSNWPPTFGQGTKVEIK
2.75

Next record, please: 18D2H2 fully human TIM-3 antibody (human IgG4, kappa) (antibody, V domains shown) VH: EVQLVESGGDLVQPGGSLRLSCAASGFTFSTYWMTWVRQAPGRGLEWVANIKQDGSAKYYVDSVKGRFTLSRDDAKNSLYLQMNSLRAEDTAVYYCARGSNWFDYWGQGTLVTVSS VL: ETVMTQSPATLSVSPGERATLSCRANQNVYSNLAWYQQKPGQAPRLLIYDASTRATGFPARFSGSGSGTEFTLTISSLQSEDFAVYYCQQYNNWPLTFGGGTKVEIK
2.58

Further cases:
Need OD450, item 57F4E5 fully human TIM-3 antibody (human IgG4, kappa) (antibody, V domains shown) VH: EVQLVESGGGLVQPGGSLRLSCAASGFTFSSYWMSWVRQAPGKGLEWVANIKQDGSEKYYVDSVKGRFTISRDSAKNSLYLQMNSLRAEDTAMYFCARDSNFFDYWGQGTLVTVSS VL: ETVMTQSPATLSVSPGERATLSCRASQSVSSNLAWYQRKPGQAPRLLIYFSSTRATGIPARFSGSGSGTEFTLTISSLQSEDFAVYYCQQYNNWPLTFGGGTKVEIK
2.89
